fraction unbound at 10 µM listing for selected compounds.
Experiment: Human plasma protein binding (equilibrium dialysis)
Format: in vitro ADME
Conditions: pH 7.4, read-out: PPB (converted)
MEASURED_PROPERTY: fraction unbound at 10 µM

* CN(C)S(=O)(=O)c1ccc(N/N=C2\C(=O)Nc3ccccc32)cc1 [NEU-2118] | 0.01
* NS(=O)(=O)c1ccc(N/N=C2\C(=O)Nc3ccccc32)cc1 [NEU-2115] | 0.04
* CNS(=O)(=O)c1ccc(N/N=C2\C(=O)Nc3ccccc32)cc1 [NEU-2124] | 0.02

----------
Assay: Aqueous pH 7.4 solubility
Type: physicochemical
Settings: aqueous buffer, thermodynamic from solid; pH 7.4 phosphate buffer, 25 °C, 20-24 h; read-out: Aq. Solubility
MEASURED_PROPERTY: solubility

- O=C1Nc2ccccc2/C1=N/Nc1cc(Cl)cc(Cl)c1 [NEU-2117]: < 3 µM
- O=C1Nc2ccccc2C1=NNc1ccccc1 [NEU-2116, (Z)-3-(2-Phenylhydrazono)indolin-2-one]: < 2 µM
- CNS(=O)(=O)c1ccc(N/N=C2\C(=O)Nc3ccccc32)cc1 [NEU-2124]: < 39 µM
- COc1ccc(N/N=C2\C(=O)Nc3ccccc32)cc1 [NEU-2114]: < 7 µM
- NS(=O)(=O)c1ccc(N/N=C2\C(=O)Nc3ccccc32)cc1 [NEU-2115]: < 8 µM
- CN(C)S(=O)(=O)c1ccc(N/N=C2\C(=O)Nc3ccccc32)cc1 [NEU-2118]: < 1 µM

----------
Experiment: Rat hepatocyte CLint
Type: in vitro ADME
Conditions: rat hepatocytes
MEASURED_PROPERTY: hepatocyte CLint (µL/min/1e6 cells)

• CN(C)S(=O)(=O)c1ccc(N/N=C2\C(=O)Nc3ccccc32)cc1 = 146
• CNS(=O)(=O)c1ccc(N/N=C2\C(=O)Nc3ccccc32)cc1 = 36.4
• CNS(=O)(=O)c1ccc(N/N=C2\C(=O)Nc3cccc(C=C(C)C)c32)cc1 = 103

----------
System: T. cruzi
Assay: β-D-Galactosidase transgenic T. cruzi assay (amastigote-infected L6 cells)
Format: cell-based, T. cruzi Tulahuen C4 strain
Conditions: Trypanosoma cruzi, 96 h, read-out: T. cruzi pEC50 (converted)
EC50 listing for selected compounds.
MEASURED_PROPERTY: EC50

• COc1ccc(N/N=C2\C(=O)Nc3ccccc32)cc1 = > 10 µM
• CC(C)=Cc1cccc2c1C(=NNc1ccc(S(N)(=O)=O)cc1)C(=O)N2 = 0.724 µM
• O=C1Nc2ccccc2C1=NNc1ccccc1 [NEU-2116, (Z)-3-(2-Phenylhydrazono)indolin-2-one] = > 10 µM
• NS(=O)(=O)c1ccc(N/N=C2\C(=O)Nc3ccccc32)cc1 = > 10 µM
• CNS(=O)(=O)c1ccc(N/N=C2\C(=O)Nc3cccc(C=C(C)C)c32)cc1 = 2.24 µM
• CC(C)=Cc1cccc2c1/C(=N/Nc1ccc(S(=O)(=O)N(C)C)cc1)C(=O)N2 = > 20 µM
• CNS(=O)(=O)c1ccc(N/N=C2\C(=O)Nc3ccccc32)cc1 = > 10 µM
• O=C1Nc2ccccc2/C1=N/Nc1cc(Cl)cc(Cl)c1 = > 10 µM
• CN(C)S(=O)(=O)c1ccc(N/N=C2\C(=O)Nc3ccccc32)cc1 = > 10 µM

----------
Assay: Mouse pharmacokinetics, blood and brain levels after IP dose
Assay type: in vivo
Conditions: female, NMRI, mouse, whole blood, ip, 10 mg/kg, blood, IP 10 mg/kg single dose, individual mice 001F-003F; read-out: Cmax
Protocol: NEU-4391 was administered intraperitoneally (IP) to two groups of female NMRI mice (Group 1 n = 3; Group 2 n = 6). The compound was prepared in 1% (v/v) DMSO:99% (v/v) 20% (w/v) sulfobutyl ether-beta-cyclodextrin (SBE-β-CD) (Captisol) in water and the dosing volume was 10 mL/kg for a total dose of 10 mg/kg. […] Diluted blood and brain homogenates were processed under standard liquid-liquid extraction procedures using acetonitrile containing an internal standard (Nifedipine) and analyzed by LC-MS/MS. […]
MEASURED_PROPERTY: Cmax (ng/mL)

• CNS(=O)(=O)c1ccc(N/N=C2\C(=O)Nc3cccc(C=C(C)C)c32)cc1 = 48.9

Data credit: paper PMC6383948
